Tested on: Klebsiella pneumoniae (ATCC 700603)
Assay: Anti-bacterial activity assay
Format: cell-based
Conditions: ATCC700603, 50 µM, read-out: Bacterial Inhibition K. pneumoniae
READOUT_NAME: inhibition at 50 µM (%)
Numbers only, in %.

COMPOUND	MEASUREMENT
CC(C)c1ccc(Nc2ncccc2S(=O)(=O)N2CCCC2)cc1	14.4

List inhibition at 50 µM for every entry below, keeping the order given.
1. Cc1cccc(CNS(=O)(=O)c2cc(-c3csc(C)n3)sc2C)c1
2. O=C(Nc1nc(-c2ccco2)c(-c2ccco2)s1)c1ccccc1
3. COc1ccccc1N1CCN(C(=O)c2cc3c(C)nn(-c4ccc(C)cc4)c3s2)CC1
4. O=S1(=O)CCC(n2cc(-c3cnn(-c4ccccc4)c3)cn2)C1 (stereo not drawn)

Result:
1: 13.7; 2: 32.1; 3: 7.52; 4: 6.87

---

For each of the compounds below, state its % Inhibition n=1 48h.
System: G. duodenalis BRIS/91/HEPU/1279
Experiment: Primary Giardia screen at 10 µM (live-cell imaging, automated counting)
Type: cell-based, Giardia duodenalis
Conditions: 48 h, first singlicate assay
Experimental: Each compound was assessed in singlicate, at a final concentration of 10 μM (0.4 μL of a 5 mM stock; diluted to a final volume of 200 μL in culture medium; 0.2% DMSO). […] Plates were incubated in sealed chambers filled with 3% O2, 5% CO2 in N2 and growth was assessed at 24 and 48 h using live cell imaging and automated counting as previously described. […] The reliability of these assays was assessed by calculating Z’ factors for each plate as previously described.
Answers are plain numbers, in %.

Consider the worked cases shown below.
COMPOUND	UNIT_SPEC	% Inhibition n=1 48h
CC1(C(=O)NCc2ccccc2)Cn2c(ccc2-c2ccco2)C(=O)N1CCc1ccco1 (stereo not drawn) [SN00787709]	%	0.0
O=C(Nc1ccc(F)cc1)c1nc2nc(-c3cccs3)cc(C(F)(F)F)n2n1 [SN00794266]	%	18.7
O=C(COc1ccc(F)cc1)N1CCN(c2nc(CN3CCCC3)cs2)CC1 [SN00799511]	%	1.1
O=C(Nc1ccccc1)NC(c1ccccc1)c1nnc(-c2ccccc2Cl)o1 (stereo not drawn) [SN00784775]	%	0.0
Cc1ccc(-c2nc3ncccn3c2NC(=O)c2ccc(C(F)(F)F)cc2)cc1 [SN00793355]	%	13.4

Kindly give each listed record's % Inhibition n=1 48h.
1. CC(C)n1ncc2c(C(=O)N3CCC(NS(=O)(=O)c4cccs4)CC3)cc(C3CC3)nc21 [SN00770479]
2. Cc1nc(-c2ccc(C(=O)N3CCCC3C(=O)Nc3ccc(C(C)C)cc3)cc2)no1 (stereo not drawn) [SN00793315]
3. COc1ccccc1OCCNC(=O)Cn1ccc2c(c(C)nn2-c2ccccc2)c1=O [SN00797916]
4. c1cnc(N2CCCN(c3nc4ccccc4o3)CC2)nc1 [SN00778442]
5. COc1ccc(-n2nc3c(c2NC(=O)c2ccc([N+](=O)[O-])cc2)CS(=O)(=O)C3)cc1 [SN00802781]

Result:
0.0
0.0
27.1
32.5
12.4

Could I get % Inhibition n=1 48h for every one of these entries?
1. COCCn1c(C2CCN(S(=O)(=O)c3cccs3)C2)nc2cccnc21 (stereo not drawn) [SN00802004]
2. CCn1c(C2NC(N)=Nc3nc4ccccc4n32)nc2ccccc21 (stereo not drawn) [SN00776112]
3. Cc1cc2c(cc1S(=O)(=O)NC(C)C)N(C(=O)C1CC1)CC2 [SN00798844]

Result:
1. 5.3
2. 5.4
3. 15.5

List % Inhibition n=1 48h for every entry below, keeping the order given.
1. COc1ccc(S(=O)(=O)N2CC=C(C(=O)NCc3ccc(C)cc3)CC2)cc1 [SN00785474]
2. O=C1CCCc2cc(S(=O)(=O)N3CCN(c4ccccc4)CC3)ccc2N1 [SN00788529]
3. Cc1cccc(-c2noc(C3CCCN3S(=O)(=O)c3ccc(C(C)(C)C)cc3)n2)c1 (stereo not drawn) [SN00797487]
4. CCn1cc(CN2CCCN(C(=O)c3cc(C4CC4)on3)CC2)cn1 [SN00778709]

Result:
1. 23.4
2. 19.1
3. 0.0
4. 0.0

Respectfully, I request % Inhibition n=1 48h for each entry included below.
1. Cc1ccc(NC(=O)Cn2c(=O)nc(NC3CCCC3)c3ccccc32)cc1C [SN00797075]
2. Cc1sc2ncn(CC3CCCO3)c(=O)c2c1C(=O)Nc1ccc(S(N)(=O)=O)nc1 (stereo not drawn) [SN00793191]
3. Cc1ccc(-n2nc(C)c3sc(N4CCCC(C(=O)NCc5ccc6c(c5)OCO6)C4)nc32)cc1 (stereo not drawn) [SN00796247]
4. COc1cccc(C(=O)n2nc(-c3cccnc3)nc2NCc2ccc(C)cc2)c1 [SN00788624]

Result:
0.0
0.0
0.0
24.5

---

Test system: G. duodenalis BRIS/91/HEPU/1279
Assay: Primary Giardia screen at 10 µM (live-cell imaging, automated counting)
Type: cell-based, Giardia duodenalis
Conditions: 48 h, first singlicate assay
Use 2% as the dividing line for % Inhibition n=1 48h, with the line itself on the Met side and lower values as Not met.

These solved cases illustrate the format of a correct answer.
STRUCTURE	LABEL_VALUE
O=C(NCc1ccc2c(c1)CCN2C(=O)c1ccccc1)c1n[nH]c2c1CCc1ccccc1-2	Met
Cn1ncc2c(NC3CCN(Cc4ccncc4)CC3)ncnc21	Not met
Cc1nc2sccn2c1-c1nc(-c2cccc3ccccc23)cs1	Met
CCc1nc(-c2cc(S(=O)(=O)N(C)c3cccc(C)c3)c(C)s2)no1	Met

Now for another entry.
Problem: In plain terms: is recorded % Inhibition n=1 48h at least 2% for "O=C(Cn1nnc(-c2cccs2)n1)c1ccc(Cl)s1" ?
Result: Met

---

Tested on: G. duodenalis BRIS/91/HEPU/1279
Experiment: Primary Giardia screen at 10 µM (live-cell imaging, automated counting)
Format: cell-based, Giardia duodenalis
Conditions: 48 h, first singlicate assay
Decide using % Inhibition n=1 48h: a value greater than or equal to 10% is Fulfilled, a smaller one is Not fulfilled.

COMPOUND	LABEL_VALUE
O=C(CCN1CCC(c2n[nH]c(C3CC3)n2)CC1)Nc1ccccc1	Fulfilled
CCn1cc(C(=O)Nc2ccc(F)cc2)c(S(=O)(=O)N2CCC(C)CC2)n1	Not fulfilled

Problem: Hi team, for "CC(C)(C)Nc1c(-c2ccc(F)cc2)nc2sc(N3CCN(Cc4ccccn4)CC3)nn12" , is the recorded % Inhibition n=1 48h at or above 10%?
Result: Fulfilled

Problem: Quick check: does "Cc1c(C(=O)O)sc2ncnc(NC3CCCCCC3)c12" have % Inhibition n=1 48h greater than or equal to 10%?
Result: Not fulfilled

Problem: Textbook exercise: given the entry "CC1CCN(c2nc(C(=O)NCCc3ccncc3)nc3c2cnn3C)CC1" , state whether its % Inhibition n=1 48h is greater than or equal to 10%.
Result: Not fulfilled

Problem: Does "CCN1C(=O)C(=O)N(Cc2coc(-c3ccc(C)cc3)n2)C1=O" have a reported % Inhibition n=1 48h of at least 10%?
Result: Fulfilled

Problem: I'd appreciate it if you could say whether "COc1ccc(-c2cccc(NC(=O)c3ccccc3Br)c2)nn1" has % Inhibition n=1 48h at least equal to 10%.
Result: Fulfilled

Problem: Kindly determine if % Inhibition n=1 48h recorded for Cc1ncc2c(n1)CN(C(C)c1nc(-c3cccs3)no1)CC2 (stereo not drawn) is above or exactly 10%.
Result: Fulfilled

Problem: Evaluate COc1ccc(OC)c(NC(=O)C2CC(=O)N(c3cccc(NC(C)=O)c3)C2)c1 (stereo not drawn) : % Inhibition n=1 48h at minimum 10%?
Result: Not fulfilled

---

System: G. duodenalis BRIS/91/HEPU/1279
Experiment: Primary Giardia screen at 10 µM (live-cell imaging, automated counting)
Format: cell-based, Giardia duodenalis
Conditions: 48 h, first singlicate assay
READOUT_NAME: % Inhibition n=1 48h (%)
Give bare numbers, in %.

// solved cases for % Inhibition n=1 48h follow
COMPOUND	ASSAYED_SYSTEM	% Inhibition n=1 48h (%)
Cc1c(F)cccc1NC(=O)Nc1ccc2c(c1)CCN2S(C)(=O)=O	G. duodenalis BRIS/91/HEPU/1279	21.1
CCCNC(=O)CN1CCN(c2nc3ccccn3c2[N+](=O)[O-])CC1	G. duodenalis BRIS/91/HEPU/1279	31.4
Cc1ccnc(N2CCCC(C(=O)NC3CCCC3)C2)n1 (stereo not drawn)	G. duodenalis BRIS/91/HEPU/1279	10.9

Hey, quick one: what's % Inhibition n=1 48h for each of these?
1. Nc1cc(C2CCNCC2)[nH]n1
2. CN(CCc1ccccn1)C(=O)c1cc2nc(-c3ccc(Cl)cc3)cc(C(F)(F)F)n2n1

Result:
1. 7.2
2. 0.0
